# Tested on: Aspergillus fumigatus
# Test: Antimicrobial activity against Aspergillus fumigatus MTCC 3008 by broth microdilution method
# Assay type: functional
Here the recorded MIC is given for each entry.
Experimental Readout: MIC (µg/mL)

1. COc1ccc(-c2cc(-c3c(C)nn(-c4ccccc4)c3-n3ccnc3)c(C#N)c(N)n2)cc1 ... 1000
2. Cc1nn(-c2ccccc2)c(-n2ccnc2)c1-c1cc(-c2ccccc2)nc(N)c1C#N ... 1000
3. COc1ccc(-c2cc(-c3c(C)nn(-c4ccccc4)c3-n3cnc(C)c3)c(C#N)c(N)n2)cc1 ... 1000
4. Cc1nn(-c2ccccc2)c(-n2ccnc2)c1-c1cc(-c2cccs2)nc(N)c1C#N ... 500
